test system: biotinyl-Ile-oxazolone; assay: self-aminoacylation, catalytic enhancement (BIO) (fold over background); higher = more active; k-Seq, kA / k0A0; sequences stand for … in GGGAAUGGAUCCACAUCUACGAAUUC…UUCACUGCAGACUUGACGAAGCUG
This sample holds only a part of the variants without activity.
// thresholds for self-aminoacylation classes: low: < 1; intermediate: ≥ 1 and < 3; high: ≥ 3

seq	class-assignment
AUUCACCUAUGACAUCGGGUG [Fam2.2 aminoacylation ribozyme variant]	intermediate
ACGCUUGCUAAUAGUCGCAAG [Fam3.1 aminoacylation ribozyme variant]	intermediate
AUUCCUCUGGUCAUCGAGUGA [Fam2.1 aminoacylation ribozyme variant]	high
CCACACUUCAAACAAGCGGUC [Fam1B.1 aminoacylation ribozyme variant]	low
AUUACCCUGGUCGUCGAGUGC [Fam2.1 aminoacylation ribozyme variant]	low
CCACAAUUAAAGCAAUCGGUC [Fam1B.1 aminoacylation ribozyme variant]	intermediate
AAGUUUGCUAUUGGUCGCAAG [Fam3.1 aminoacylation ribozyme variant]	low
CCACACUGGAAGCAAUCGGUC [Fam1B.1 aminoacylation ribozyme variant]	low
AUUUACCUAGGUCAUCGGGUA [Fam2.2 aminoacylation ribozyme variant]	high
UCACGCUUCAAGCAAUCGGUC [Fam1B.1 aminoacylation ribozyme variant]	intermediate
GUUCACCUAGGUGAUCGGGUG [Fam2.2 aminoacylation ribozyme variant]	high
AUUCACGUAGGUCAUCGGGUA [Fam2.2 aminoacylation ribozyme variant]	intermediate
CAACUUCAAACAAGCGGUCUG [Fam1A.1 aminoacylation ribozyme variant]	intermediate
CCACAUCUCAAGCAAUCGGUC [Fam1B.1 aminoacylation ribozyme variant]	intermediate
AACUUUGCUAAUAGUGGCAAG [Fam3.1 aminoacylation ribozyme variant]	intermediate
CUUCACCCAGGUCAUCGGGUG [Fam2.2 aminoacylation ribozyme variant]	intermediate

###

system: biotinyl-Ile-oxazolone; experiment: self-aminoacylation, catalytic enhancement (BIO) (fold over background); higher = more active; k-Seq, kA / k0A0; sequences stand for … in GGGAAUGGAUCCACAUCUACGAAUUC…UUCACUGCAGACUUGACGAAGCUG
This sample holds only a part of the variants without activity.
Listing: self-aminoacylation of selected sequences
test-readout: self-aminoacylation

seq	test-readout	value-observed
AUUACCCUGGCCAGCGAGUGA [Fam2.1 aminoacylation ribozyme variant]	self-aminoacylation	2.73
AAGUGUGCUAAUAGUCGCAAG [Fam3.1 aminoacylation ribozyme variant]	self-aminoacylation	1.56
CUACUUCAAAAAGUCGGUCUG [Fam1A.1 aminoacylation ribozyme variant]	self-aminoacylation	0.876
AAGUUUGCUUAUGGUCGCAAG [Fam3.1 aminoacylation ribozyme variant]	self-aminoacylation	0.54
CCACUUCAAACACUCGGUCUG [Fam1A.1 aminoacylation ribozyme variant]	self-aminoacylation	1.45
AUUGGCCUAGGUCAUCGGGUG [Fam2.2 aminoacylation ribozyme variant]	self-aminoacylation	18.3
AUUACCUUGGUCAUCGUGUGA [Fam2.1 aminoacylation ribozyme variant]	self-aminoacylation	1.53
AUUAACCUAGGUCAUCGGGUU [Fam2.2 aminoacylation ribozyme variant]	self-aminoacylation	5.18
CCACUCUUCAAGCAGUCGGUC [Fam1B.1 aminoacylation ribozyme variant]	self-aminoacylation	1.04
AAGUUUGCUAAUAUUCGCAGG [Fam3.1 aminoacylation ribozyme variant]	self-aminoacylation	1.35
AUUUCCCUGGUCAUCGAGUAA [Fam2.1 aminoacylation ribozyme variant]	self-aminoacylation	1.56
UUUCAACUAGGUCAUCGGGUG [Fam2.2 aminoacylation ribozyme variant]	self-aminoacylation	3.58
CUACUUCAAACAAACGGUCUG [Fam1A.1 aminoacylation ribozyme variant]	self-aminoacylation	0.77
AUUACCCUGGUAAUUGAGUGA [Fam2.1 aminoacylation ribozyme variant]	self-aminoacylation	6.96
CUACUUCAAACAUUCGUUCUG [Fam1A.1 aminoacylation ribozyme variant]	self-aminoacylation	0.713
AUUAACCUGGUCAUCGAGUGA [Fam2.1 aminoacylation ribozyme variant]	self-aminoacylation	3.97
AUUACCCUGGUCACCGAGUGG [Fam2.1 aminoacylation ribozyme variant]	self-aminoacylation	1.57
AUUAACUUAGGUCAUCGGGUG [Fam2.2 aminoacylation ribozyme variant]	self-aminoacylation	2.79
